Source listed as paper PMC5854672.

# system_name: T1, mSlo1/β4(N123V) channel (mouse | human, UniProt Q08460 1-1209; Q86W47 1-210, N123V)
# T1 construct: mSlo1, BK channel α subunit (KCNMA1) of mouse, full-length cDNA, GenBank HQ221747.1; human BK channel β4 subunit (KCNMB4), full-length cDNA, GenBank AF207992.1; source: HEK293, transiently co-transfected (pcDNA3.1(+)), in excised membrane patches; copies: 4 + 4
# assay_details: patch-clamp electrophysiology (time course of current block); outside-out patches of transfected HEK293 cells perfused with 1 μM ChTX; steps to +100 mV, intracellular 10 μM Ca2+; τon and τoff fitted to a first order bimolecular reaction scheme; KD = [ChTX]/((τoff/τon) − 1)
# condition_summary: one partner purified
pKd: −log10 of the molar value.
readout_type: pKd

INSERT INTO measurements (binder, data_value) VALUES
  ('QFTNVSCTTSKECWSVCQRLHNTSRGKCMNKKCRCYS (charybdotoxin (ChTX), scorpion toxin; also called ChTX; source: bought: Sigma-Aldrich (Art. No. C7802)) [Charybdotoxin]', 7.21);
